Tested on: soybean (Glycine max Merr.), GLXMA
Assay: Test Example 2 post-emergence (foliage treatment) herbicidal activity, GLXMA
Assay type: in vivo
Details: 63 g a.i./ha
Method: Upland field soil was put into a 1/170,000 ha pot, and seeds of various plants were sown. […] On the 20th to 23rd day after the application of the herbicide, the growth of the respective plants was visually observed, and the herbicidal effects were evaluated by growth controlling degrees (%) ranging from 0 (equivalent to the untreated control) to 100 (complete kill), whereby the results shown in Table 5, were obtained. […]
REPORTED ENDPOINT: growth controlling degree, GLXMA (%)

1. Cn1nc(-c2c(F)cc(Cl)c(OC(F)F)c2NCc2ccccc2)c(Cl)c1OC(F)F [Compound 1-88]    60
2. CCOC(=O)Nc1c(OC)c(Cl)cc(F)c1-c1nn(C)c(OC(F)F)c1Cl [Compound 1-273]    60
3. COc1c(Cl)cc(F)c(-c2nn(C)c(OC(F)F)c2Cl)c1NC(=O)OCCCl [Compound 1-68]    60

* * *

Test system: rice (Oryza sativa L.), ORYSA
Assay: Test Example 2 post-emergence (foliage treatment) herbicidal activity, ORYSA
Format: in vivo
Conditions: 63 g a.i./ha
REPORTED ENDPOINT: growth controlling degree, ORYSA (%)

1) COc1c(Cl)cc(F)c(-c2nn(C)c(OC(F)F)c2Cl)c1NC(=O)C(C)(C)Oc1ccccc1    40
2) COc1c(Cl)cc(F)c(-c2nn(C)c(OC(F)F)c2Cl)c1NC(=O)COc1ccccc1    80
3) COc1c(Cl)cc(F)c(-c2nn(C)c(OC(F)F)c2Cl)c1N(C=O)CC(C)=O    40
4) COc1c(Cl)cc(F)c(-c2nn(C)c(OC(F)F)c2Cl)c1NC(=O)C=C(C)C    80
5) COc1c(Cl)cc(F)c(-c2nn(C)c(OC(F)F)c2Cl)c1NC(=O)C=Cc1ccc(F)cc1    40
6) COc1c(Cl)cc(F)c(-c2nn(C)c(OC(F)F)c2Cl)c1NC(=O)C=Cc1cccc(F)c1    40
7) COc1c(Cl)cc(F)c(-c2nn(C)c(OC(F)F)c2Cl)c1NC(=O)C(C)C    80
8) COc1c(Cl)cc(F)c(-c2nn(C)c(OC(F)F)c2Cl)c1NC(=O)CCOc1ccccc1    40
9) COc1c(Cl)cc(F)c(-c2nn(C)c(OC(F)F)c2Cl)c1N(C=O)CC(=O)c1ccccc1    40

* * *

Test system: corn (Zea mays L.): ZEAMX
Test: Test Example 1 pre-emergence herbicidal activity, ZEAMX
Type: in vivo
Details: Rate 63 g a.i./ha, visually observed 20th to 23rd day after application
REPORTED ENDPOINT: Pre-emergence Herbicidal Activity ZEAMX (growth controlling degree) (%)

1) COc1c(Cl)cc(F)c(-c2nn(C)c(OC(F)F)c2Cl)c1NC(=O)c1cccc(C(F)(F)F)c1    0
2) COc1c(Cl)cc(F)c(-c2nn(C)c(OC(F)F)c2Cl)c1NCCc1cccc(C)c1    10
3) Cn1nc(-c2c(F)cc(Cl)c(OC(F)F)c2N)c(Cl)c1OC(F)F    10
4) COc1c(Cl)cc(F)c(-c2nn(C)c(OC(F)F)c2Cl)c1NC(=O)OCc1ccccc1Cl    0
5) CNc1c(OC)c(Cl)cc(F)c1-c1nn(C)c(OC(F)F)c1Cl    0
6) COc1c(Cl)cc(F)c(-c2nn(C)c(OC(F)F)c2Cl)c1NC(=O)CCc1cccc(F)c1    0
7) Cn1nc(-c2c(F)cc(Cl)c(OC(F)F)c2NC(=O)C(F)(F)F)c(Cl)c1OC(F)F    20
8) COc1c(Cl)cc(F)c(-c2nn(C)c(OC(F)F)c2Cl)c1N(C=O)CC(=O)c1ccccc1    10
9) COc1ccc(OC(=O)Nc2c(OC)c(Cl)cc(F)c2-c2nn(C)c(OC(F)F)c2Cl)cc1    0
10) COc1ccc(COC(=O)Nc2c(OC)c(Cl)cc(F)c2-c2nn(C)c(OC(F)F)c2Cl)cc1    10
11) COc1cccc(C(=O)Nc2c(OC)c(Cl)cc(F)c2-c2nn(C)c(OC(F)F)c2Cl)c1    0
12) COC(=O)Nc1c(OC)c(Cl)cc(F)c1-c1nn(C)c(OC(F)F)c1Cl    30
